- Protocol Details: Cytotoxicity against african green monkey Vero cells at 10 uM
- Type: cell-based
- Assay Setup: chlorocebus sabaeus, read-out: INH
Quantity: cytotoxicity at 10 µM
Respond with the figure and its unit, in that order.

# return recorded cytotoxicity at 10 µM for input COc1cc(/C=C/C(=O)CC(=O)/C=C/c2ccc(O)c(OC)c2)ccc1O
20%

###

- Protocol Details: Chemical stability in phosphate buffer at pH 7 after 8 hrs
- Format: physicochemical
# Degradation % at 8 h per record follows

Example entries begin here.
Smiles Str: CC(=O)/C=C(O)/C=C/c1ccc(O[C@@H]2O[C@H](CO)[C@@H](O)[C@H](O)[C@H]2O)cc1
Quantity: Degradation % at 8 h
Reported Value: < 10%
//
Smiles Str: CC(=O)/C=C(O)/C=C/c1ccc(O[C@@H]2O[C@H](CO)[C@@H](O)[C@H](O)[C@H]2O)c(O)c1
Quantity: Degradation % at 8 h
Reported Value: < 10%

# next compound below
# return recorded Degradation % at 8 h for input COc1cc(/C=C/C(O)=C/C(C)=O)ccc1O[C@@H]1O[C@H](CO)[C@@H](O)[C@H](O)[C@H]1O
< 10%

All figures here come from ChEMBL document CHEMBL1154487.
